Reported values of IC50 for individual entries
experiment: Inhibitory activity against DNA topoisomerase I
measured.endpoint: IC50 (nM)

>>> experimental_value("CC[C@@]1(O)C(=O)OCc2c1cc1n(c2=O)Cc2c-1nc1cnc(Br)cc1c2C")
28
>>> experimental_value("CC[C@@]1(O)C(=O)OCc2c1cc1n(c2=O)Cc2c-1nc1cnc(C#N)cc1c2C")
143

###

Sequence of the target: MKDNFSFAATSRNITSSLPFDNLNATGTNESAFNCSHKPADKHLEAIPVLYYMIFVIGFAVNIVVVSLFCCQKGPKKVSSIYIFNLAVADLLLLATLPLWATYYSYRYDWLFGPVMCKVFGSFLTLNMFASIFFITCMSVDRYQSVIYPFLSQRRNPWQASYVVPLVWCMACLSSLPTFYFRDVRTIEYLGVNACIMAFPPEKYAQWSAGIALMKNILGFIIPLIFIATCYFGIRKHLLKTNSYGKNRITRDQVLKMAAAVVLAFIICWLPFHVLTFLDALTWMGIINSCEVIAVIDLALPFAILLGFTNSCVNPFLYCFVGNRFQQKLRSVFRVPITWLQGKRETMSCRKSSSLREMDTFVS
measured.endpoint: IC50 (nM)

>>> experimental_value("CCCCc1nn(-c2ccccc2C(F)(F)F)c(=O)n1Cc1ccc(-c2ccccc2S(=O)(=O)NC(=O)OC(C)(C)C)cc1")
0.45
